Origin of the recorded values: PubChem BioAssay (NCI)

system: UO-31 renal; experiment: NCI-60 one-dose screen, 48 h (100 = growth as untreated, 0 = no growth, -100 = all killed); settings: 10 µM unless noted
About 83,000 compounds went through this panel and 20% of them were active in at least one assay; those are over-represented in the sample as a whole.
Parameter: growth. Scope: all listed entries.
Give just the numeric value; % need not be written.

Below: 8 molecules and their reported growth.
# molecule, measurement_units, growth
rows = [
    ("COc1ccc(C2=C(Br)C(=O)c3nc(C)ccc3C2=O)cc1", "%", 69.9),
    ("CCCCNC(=O)Oc1ccc(/C(=C(/C)Cc2ccc(OC)cc2)c2ccc(OCCN3CCCC3)cc2)cc1", "%", 53.5),
    ("COC1/C=C/OC2(C)Oc3c(C)c(O)c4c(O)c(c(/C=N/Nc5ccc([N+](=O)[O-])cc5[N+](=O)[O-])c(O)c4c3C2=O)NC(=O)C(C)=C/C=C/C(C)C(O)C(C)C(O)C(C)C(OC(C)=O)C1C (centres undefined)", "%", 70.2),
    ("COc1ccc(/C=N/NC(=O)c2ccc(-n3cc(-c4ccccc4)nn3)cc2)cc1OC", "%", 108),
    ("Nc1n[nH]c2cccc(C#Cc3cccc(NC(=O)c4cc(F)cc(C(F)(F)F)c4)c3)c12", "%", 36.8),
    ("CCO/C=N/C1=C(C#N)C(c2ccc(Cl)cc2)c2sc3c(F)cccc3c2O1 (centres undefined)", "%", 66),
    ("CSc1nc2ncc([N+](=O)[O-])c(=O)n2[nH]1", "%", 87.5),
    ("N#Cc1nc(-c2ccc(F)cc2)oc1S(=O)(=O)N1CCOCC1", "%", 82),
]

Read the next record carefully.
Input "O=C1/C(=C/c2ccc([N+](=O)[O-])cc2)COc2ccc(O)cc21" . Output growth: 53.7

###

Measured growth by item
tested on: OVCAR-3 ovarian; assay: NCI-60 one-dose screen, 48 h (100 = growth as untreated, 0 = no growth, -100 = all killed); conditions: 10 µM unless noted
This is part of a sample that, as a whole, favours compounds with a hit. Of some 83,000 tested, about 20% had one in any assay.
Please give a number only; it is taken to be in %.

# input_smiles, observed_measurement
measured = [
    ("COC1=CC(c2ccc[nH]2)=N/C1=C\\c1[nH]c(C)c(CC(=O)OCc2ccccc2)c1CCC(=O)OCc1ccccc1", -86.8),
    ("COc1ccc(-c2ccc(-c3ccc(C(=N)N)cc3)s2)cc1Cl", -88),
    ("COc1ccc(CNc2c3ccccc3nc3ccccc23)cc1", 48.1),
    ("Cc1cc(N2CCCCC2)cc(C)c1-c1csc(NC(=O)c2ccncc2)n1", 50.5),
]

Memo: "CN(C)c1ccc(C(=O)OCCCCCCl)cc1" , reported growth: 95.4

For record "O=C1c2c(c3c4ccccc4[nH]c3c3ccc4ccccc4c23)C(=O)N1CCN1CCOCC1" the listed growth is 44.1

get_value(item= "CCC(=O)Oc1ccc(-c2ccccc2)cc1Br" , readout=growth) returns 114

# growth (compound: "CSc1oc(C)nc1[P+](c1ccccc1)(c1ccccc1)c1ccccc1" ) is 36.9

The compound listed as "COc1cc(-c2cncn2-c2ccc(-c3nc4ccc(F)cc4s3)cc2)ccc1F" has a reported growth of 97.5

Field growth (entry "CCCCCCCC[C@@H]1N[C@@H](C(=O)OC)Cc2c1[nH]c1ccccc21" ) reads 101

###

tested on: SNB-75 CNS; assay: NCI-60 one-dose screen, 48 h; conditions: 10 µM unless noted
This is part of a sample that, as a whole, favours compounds with a hit. Of some 83,000 tested, about 20% had one in any assay. The source made the active and inactive calls. The calls were made as follows: active = growth percent below 10; inactive = the rest.
Valid outcomes are listed here; reply with one: active, inactive

Example results:
# input_smiles, assigned_category
measured = [
    ("CC(C)c1ccc(C(=O)Nc2sc3c(c2C(N)=O)CCC(=O)C3)cc1", "active"),
    ("Clc1ccc2c(c1)C(c1c[nH]c3ccccc13)(c1c[nH]c3ccccc13)CCO2", "inactive"),
    ("Cc1ccc(Nc2cc(N)nc(N)n2)cc1Cl", "inactive"),
    ("CCOC(=O)C#Cc1c(C(=O)OCC)nnn1Cc1ccc([N+](=O)[O-])cc1", "inactive"),
]

Prompt line: Recorded call for "Cc1cc(N2CCN(CC(=O)Nc3ccc4c(ccn4C)c3)CC2)nc(N2CCCCCC2)n1" ?
Response line: inactive

Prompt line: Hi team, can someone confirm the assay call for "CCCC/C(CC)=N\NS(=O)(=O)c1ccc([N+](=O)[O-])cc1" ?
Response line: inactive

Prompt line: Test call, this compound: "CCOC(=O)c1cc2c(n1Cc1cc(OC)c(OC)c(OC)c1)-c1nc(N)sc1CCC2"
Response line: inactive

Prompt line: Given "O=C(N(c1ccccc1)c1ccccc1)n1cc(I)c2nc(Cl)nc(Cl)c21" , state the outcome it received in this test.
Response line: inactive

Prompt line: Call for entry "CC1CCN(CCOc2ccc(CNc3ccc4nc(CCC5CCCCC5)[nH]c4c3)cc2)CC1" :
Response line: inactive

Prompt line: GET /call?item= "Nc1cnc(C(=O)NNc2nc3cc(F)ccc3n3cccc23)cn1" returns the recorded outcome of this test.
Response line: inactive

###

The compounds listed here are annotated with their growth.
test system: 786-0 renal; experiment: NCI-60 one-dose screen, 48 h (100 = growth as untreated, 0 = no growth, -100 = all killed); conditions: 10 µM unless noted
The panel holds about 83,000 compounds, 20% with a hit somewhere; the sample as a whole holds those more often.
Provide the reading as a plain figure in %.

Use the examples below as a reference point.
# compound, study_target, growth [%]
rows = [
    ("O=C(Nc1ccc(Oc2cccc(Cl)c2)c(Cl)c1)c1cnccn1", "786-0 renal", 44.6),
    ("CCn1c(SCC(=O)N/N=C(\\C)c2ccc(Cl)cc2)nc2c1c(=O)n(C)c(=O)n2C", "786-0 renal", 101),
    ("O=S(=O)(Nc1cc(Cl)ccc1Cl)c1ccc(-c2cnc(C3CC3)o2)cc1", "786-0 renal", 33),
]

The compound listed as "CC(=O)c1c(C)nc2ccccc2c1/C=C/c1ccc(F)cc1" shows growth equal to 89.4

GET /value?item= CC1CCc2c(C(=O)Nc3ncc(Cc4cccc([N+](=O)[O-])c4)s3)csc2C1 (stereo unspecified) &field=growth returns 30.1

The compound "COC(=O)c1c2c(c(C)[n+]([O-])c1C)C(=O)C(NCc1cccc(OC)c1)=CC2=O" showed growth equal to 54.3

growth for "COC(=O)c1c(C)c2n(c1C)C(=O)C(c1ccccc1)=C2" is 94.3

###

tested on: NCI/ADR-RES ovarian; test: NCI-60 one-dose screen, 48 h; conditions: 10 µM unless noted
About 83,000 compounds went through this panel and 20% of them were active in at least one assay; those are over-represented in the sample as a whole. Active and inactive are the calls of the source. How the source made its calls: active means growth percent below 10; inactive means the rest.
Just give me one of these, please: active, inactive

Here are 8 compounds together with their reported answers.
# compound, assigned_category
records = [
    ("COc1cc(C2CC(c3ccc(Nc4nc(Nc5ccc(Cl)cc5)nc(Nc5ccc(Cl)cc5)n4)cc3)=NN2C(C)=O)cc(OC)c1OC (centres undefined)", "inactive"),
    ("Clc1ccc2c(c1)C(c1c[nH]c3ccccc13)(c1c[nH]c3ccccc13)CCO2", "inactive"),
    ("NC(Cc1ccc(O)c([N+](=O)[O-])c1)C(=O)O (centres undefined)", "inactive"),
    ("CC(C)C1=NOC(=O)C1=Cc1cn(-c2ccccc2)nc1-c1ccc(F)cc1", "inactive"),
    ("CC(C)COc1nc2c(c(=O)n(C)c(=O)n2C)n1C", "inactive"),
    ("OCCn1cc(-c2nc(-c3c[nH]c4ncccc34)cs2)c2ccccc21", "inactive"),
    ("C1CCC([PH+](C2CCCCC2)C2CCCCC2[PH+](C2CCCCC2)C2CCCCC2)CC1.[Au].[CH-]1CCCCC1C1CCCC[N-]1 (centres undefined)", "active"),
    ("C=CCn1c(SCC(=O)Nc2ccc(C(=O)/C=C/c3ccc(Cl)cc3)cc2)nnc1-c1ccc(Br)cc1", "inactive"),
]

Prompt line: Which result was noted for this compound in the test: "CC1CCN(CCOc2ccc(CNc3ccc4nc(CCC5CCCCC5)[nH]c4c3)cc2)CC1"
Response line: inactive

###

tested on: HOP-62 NSCLC; assay: NCI-60 one-dose screen, 48 h (100 = growth as untreated, 0 = no growth, -100 = all killed); conditions: 10 µM unless noted
Compounds without any hit were thinned out: in the full panel of roughly 83,000, 20% have a hit. The source made the active and inactive calls. How the source made its calls: active means growth percent below 10; inactive means the rest.
measurement_name: growth

Illustrative cases are given below, each with its answer.
# compound, growth
records = [
    ("CC1OC(n2c3ccccc3c3c4c(c5c6ccccc6[nH]c5c32)C(=O)N(CCN2CCCC2)C4=O)CC(O)C1O (stereo not given)", "35.2% (inactive)"),
    ("O=C(O)c1ccc(-n2cc(/C=N/Nc3ccccc3)c(-c3ccc(F)cc3F)n2)cc1", "40.2% (inactive)"),
    ("Cn1ccc(=O)c(C(=O)Nc2nsc3ccc([N+](=O)[O-])cc23)c1", "96.4% (inactive)"),
    ("Cc1ccc2c(n1)C(=O)C(Br)=C(C1CCCC1)C2=O", "84% (inactive)"),
    ("N#Cc1nc(-c2ccc(Cl)cc2)oc1S(=O)(=O)N1CCN(c2ccc(F)cc2)CC1", "96.4% (inactive)"),
    ("O=C1c2c(c3c4ccccc4[nH]c3c3ccc4ccccc4c23)C(=O)N1CCN1CCOCC1", "45.8% (inactive)"),
    ("Cc1ccc(NC(=O)c2sc3nc(C)c(Br)c(C)c3c2N)cc1", "34.9% (inactive)"),
    ("CC(C)c1ccc(Cc2cnc(NC(=O)c3cc(Br)cs3)s2)cc1", "35.8% (inactive)"),
    ("O=C(Cn1cc(CSc2nc3ccccc3o2)nn1)Nc1ccc(F)cc1F", "114% (inactive)"),
]

Here is the next item to consider.
Field growth (entry "CCOC(=O)C/C(=N\Nc1cc(=O)[nH]c2ccc(Br)cc12)C(=O)OCC" ) reads 95.9% (inactive)
